tested on: P-Akt (S473); test: Cell based AlphaLISA assay, inhibition of P-Akt (S473) in MDA-MB-468 cells; details: Homo sapiens, 4 h, 0.017-1,000 nM, two to four hours at 37° C., AlphaLisa SureFire Ultra, read-out: pIC50 for Inhibition of mTORC1 and mTORC2 Substrate Phosphorylation, p-AKT1/2/3-(S473) (converted)
measured_attribute: IC50

These recorded examples may help you get a feel for the data.
compound_string=CO[C@H]1C[C@@H]2CC[C@@H](C)[C@@](O)(O2)C(=O)C(=O)N2CCCC[C@H]2C(=O)O[C@H]([C@H](C)C[C@@H]2CC[C@@H](O)[C@H](OC)C2)C[C@@H](O)[C@H](C)/C=C(\C)[C@@H](O)[C@@H](OC)C(=NOCC(=O)N2CCc3nc(N4CCN(C(=O)CCOCCN5CCN(c6ncc(C(=O)N7CCc8cc(Cn9nc(-c%10ccc%11oc(N)nc%11c%10)c%10c(N)ncnc%109)ccc8C7)cn6)CC5)CC4)ncc3C2)[C@H](C)C[C@H](C)/C=C/C=C/C=C/1C measured_attribute=IC50 reported="> 1000 nM"
compound_string=CO[C@H]1C[C@@H]2CC[C@@H](C)[C@@](O)(O2)C(=O)C(=O)N2CCCC[C@H]2C(=O)O[C@H]([C@H](C)C[C@@H]2CC[C@@H](O)[C@H](OC)C2)C[C@@H](O)[C@H](C)/C=C(\C)[C@@H](O)[C@@H](OC)C(=NOCC(=O)NCc2cnc(N3CCN(C(=O)CN(C)CC(=O)NCCOCCOCCC(=O)NCCCCn4nc(-c5cnc6[nH]ccc6c5)c5c(N)ncnc54)CC3)nc2)[C@H](C)C[C@H](C)/C=C/C=C/C=C/1C measured_attribute=IC50 reported="> 1000 nM"

Now look at this one.
[Q] Supply measured IC50 of `CO[C@H]1C[C@@H]2CC[C@@H](C)[C@@](O)(O2)C(=O)C(=O)N2CCCC[C@H]2C(=O)O[C@H]([C@H](C)C[C@@H]2CC[C@@H](O)[C@H](OC)C2)C[C@@H](O)[C@H](C)/C=C(\C)[C@@H](O)[C@@H](OC)C(=NOCC(=O)NCc2cnc(N3CCN(CCOCCN4CCN(c5ncc(C(=O)N6CCc7cc(Cn8nc(-c9ccc%10oc(N)nc%10c9)c9c(N)ncnc98)ccc7C6)cn5)CC4)CC3)nc2)[C@H](C)C[C@H](C)/C=C/C=C/C=C/1C` in your reply.
[A] > 1000 nM
